B1: CPEB3 Ribozyme (parent)
chain: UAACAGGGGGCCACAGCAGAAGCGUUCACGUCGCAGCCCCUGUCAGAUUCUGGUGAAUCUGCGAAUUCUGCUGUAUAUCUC

variants of: B1; test: self-cleavage, relative activity (ratio to wild type); higher = more cleavage; in vitro, sequencing
Please go through the items and note down their self-cleavage.
Enter a number only.

Inquiry: Would you mind telling me what self-cleavage value was observed for A18C A20U ?
Reply text: 0.15

Inquiry: Now consider C40A U48C and answer again.
Reply text: 0.18

Inquiry: Now consider U41G A77U and answer again.
Reply text: 0.36

Inquiry: Now consider A2C A5G and answer again.
Reply text: 0.86

Inquiry: Now consider G55A A64U and answer again.
Reply text: 0.25

Inquiry: Now consider `A28C` and answer again.
Reply text: 0.56

Inquiry: Now consider U26A A64C and answer again.
Reply text: 0.5

Inquiry: Now consider G7A U26G and answer again.
Reply text: 0.07

Inquiry: Now consider A3G A57C and answer again.
Reply text: 0.49

Inquiry: Now consider G70U U72C and answer again.
Reply text: 0.42

Inquiry: Now consider G73U U80C and answer again.
Reply text: 1.28

Inquiry: Now consider U72A A77G and answer again.
Reply text: 1.02

Inquiry: Now consider C23U A28U and answer again.
Reply text: 0.23

Inquiry: Now consider U31A G73A and answer again.
Reply text: 1.04

Inquiry: Now consider A35U U48G and answer again.
Reply text: 0.26

Inquiry: Now consider C68U U80C and answer again.
Reply text: 1.08

Inquiry: Now consider U31C G46A and answer again.
Reply text: 0.15

Inquiry: Now consider G16C U72A and answer again.
Reply text: 0.3

Inquiry: Now consider U51G U67C and answer again.
Reply text: 0.17

Inquiry: Now consider G19U G36C and answer again.
Reply text: 0.19

Inquiry: Now consider G30U U51A and answer again.
Reply text: 0.11

Inquiry: Now consider U31C G55A and answer again.
Reply text: 0.78

Inquiry: Now consider U41G A57C and answer again.
Reply text: 0.11

Inquiry: Now consider G16U A57G and answer again.
Reply text: 0.26

Inquiry: Now consider G24A U41G and answer again.
Reply text: 0.12

Inquiry: Now consider G46U G70A and answer again.
Reply text: 0.08

Inquiry: Now consider C29U C62G and answer again.
Reply text: 0.24

Inquiry: Now consider A13U C81U and answer again.
Reply text: 1.2

Inquiry: Now consider C11A A45G and answer again.
Reply text: 0.41

Inquiry: Now consider A56U A77U and answer again.
Reply text: 0.73

Inquiry: Now consider G9C G30U and answer again.
Reply text: 0.22

Inquiry: Now consider U31C C59A and answer again.
Reply text: 0.29

Inquiry: Now consider A2U A3U and answer again.
Reply text: 1.04

Inquiry: Now consider U25C U80A and answer again.
Reply text: 0.28

Inquiry: Now consider A13C G22A and answer again.
Reply text: 0.19

Inquiry: Now consider U41A U51G and answer again.
Reply text: 0.42

Inquiry: Now consider C4A G6A and answer again.
Reply text: 0.43

Inquiry: Now consider A21G G24C and answer again.
Reply text: 0.23

Inquiry: Now consider U25G U66C and answer again.
Reply text: 0.23

Inquiry: Now consider U26C U76A and answer again.
Reply text: 0.53

All figures here come from the RNAGym collection of RNA variant scans (doi:10.1093/nar/gkz1192).
